The values you see were collected from patent US9353089B2.

# System: recombinant human BACE1
# assay_text: β-Secretase (BACE1) enzyme inhibition FRET assay
# Type: biochemical
# test_context: ratio of BACE1 IC50 to PM-2 IC50
reported_property: BACE1/PM2 Ratio

[
  {
    "molecule": "COc1cccc(-c2cccc(C3(c4ccccc4)NC(=N)N(C4CCOCC4)C3=O)c2)c1 (stereo not shown)",
    "system_tested": "recombinant human BACE1",
    "recorded_result": 218
  },
  {
    "molecule": "N=C1NC(c2ccccc2)(c2cccc(-c3cccnc3)c2)C(=O)N1C1CCCCC1 (stereo not shown)",
    "system_tested": "recombinant human BACE1",
    "recorded_result": 1392
  },
  {
    "molecule": "COc1cccc(-c2cccc(C3(c4ccccc4)NC(=N)N(C4CCCCC4)C3=O)c2)c1 (stereo not shown)",
    "system_tested": "recombinant human BACE1",
    "recorded_result": "~270"
  }
]

[Q] Param request: BACE1/PM2 Ratio | system recombinant human BACE1 | item COc1cccc(-c2cccc(C3(C4CC4)NC(=N)N(C4CCCCC4)C3=O)c2)c1 (stereo not shown)
[A] 67

====

# Test system: Plasmodium falciparum 3D7 (CQ-sensitive)
# assay_text: In vitro antimalarial assay (malaria SYBR Green I-based fluorescence, MSF), 3D7
# Assay type: cell-based
# test_context: 3D7, read-out: Pf 3D7 IC50, Table 8
reported_property: pIC50
One number for each entry, as −log10 of the molar value.

// known answers, use as guide
[
  {
    "compound": "COc1ccc(C2(c3ccc(OC)cc3)NC(=N)N(C3CCN(C(=O)OC(C)(C)C)CC3)C2=O)cc1 [Example 206]",
    "recorded_result": 6.42
  },
  {
    "compound": "N=C1NC(c2ccccc2)(c2cccc(-c3cccnc3)c2)C(=O)N1C1CCCCC1 (stereo not shown) [Example 136]",
    "recorded_result": 6.12
  },
  {
    "compound": "CCC(CN1C(=N)NC(c2ccccc2)(c2ccccc2)C1=O)c1ccccc1 (stereo not shown) [drawing 192]",
    "recorded_result": 5.56
  },
  {
    "compound": "COc1cccc(C2(c3cccc(OC)c3)NC(=N)N(C3CCCCC3)C2=O)c1 [Example 128]",
    "recorded_result": 6.11
  },
  {
    "compound": "COc1ccc(C2(c3ccc(OC)cc3)NC(=N)N(C3CCOCC3)C2=O)cc1 [Example 176]",
    "recorded_result": 6.34
  },
  {
    "compound": "COc1ccc(C2(c3cccc(-c4cccnc4)c3)NC(=N)N(C3CCCCC3)C2=O)cc1 (stereo not shown) [Example 171]",
    "recorded_result": 6.23
  }
]

Could you now look at the following compound, please?
[Q] # return recorded pIC50 for entry COc1ccc(C2(c3ccc(OC)cc3)NC(=N)N(CC3CCOCC3)C2=O)cc1 [Example 275]
[A] 6.33

====

# assay_text: HLM metabolic stability assay
# Type: in vitro ADME
# test_context: pH 7.4, human liver microsomes, read-out: HLM t1/2
reported_property: half-life at 1 μM (min)
One number for each entry, in min.

[Q] Fill in half-life at 1 μM for record COc1ccc(C2(c3ccc(OC)cc3)NC(=N)N(C3CCOCC3)C2=O)cc1
[A] 36

====

# system_tested: Plasmepsin-2 (PM-2; Plm II) (Plasmodium falciparum (isolate HB3), UniProt P46925)
# Sequence (P46925 125-453 limits assumed): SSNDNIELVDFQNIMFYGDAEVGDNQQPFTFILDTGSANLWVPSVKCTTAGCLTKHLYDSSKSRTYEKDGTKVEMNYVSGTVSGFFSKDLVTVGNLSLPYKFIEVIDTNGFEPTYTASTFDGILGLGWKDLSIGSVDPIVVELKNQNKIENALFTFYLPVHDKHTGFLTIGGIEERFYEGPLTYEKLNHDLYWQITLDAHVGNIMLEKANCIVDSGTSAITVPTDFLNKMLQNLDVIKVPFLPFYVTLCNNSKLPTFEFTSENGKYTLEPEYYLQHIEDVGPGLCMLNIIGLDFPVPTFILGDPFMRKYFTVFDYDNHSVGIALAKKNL
# assay_text: Plasmepsin-2 enzyme inhibition assay
# Assay type: biochemical
# test_context: Table 13; read-out: PM-2 IC50
Record form. Attribute: pIC50. Fill in for each entry.
Answers are plain numbers, as −log10 of the molar value.

Here's what some known entries look like.
[
  {
    "compound": "COc1ccc(C2(c3ccc(OC)cc3)NC(=N)N(CC(C)(C)C)C2=O)cc1 [Example 252]",
    "recorded_result": 8.28
  },
  {
    "compound": "COc1ccc(C2(c3cccnc3)NC(=N)N(C3CCOCC3)C2=O)cc1 (centres unmarked) [Example 323]",
    "recorded_result": 7.13
  },
  {
    "compound": "N=C1NC(c2cccc(-c3cccnc3)c2)(C2CCCCC2)C(=O)N1C1CCOCC1 (centres unmarked) [Example 517]",
    "recorded_result": 6.90
  },
  {
    "compound": "N=C1NC(c2ccccc2)(c2ccccc2)C(=O)N1C1CC1 [Example 142]",
    "recorded_result": 5.75
  },
  {
    "compound": "COc1cccc(C2(c3cccc(-c4cccnc4)c3)NC(=N)N(C3CCCCC3)C2=O)c1 (centres unmarked) [Example 214]",
    "recorded_result": 7.92
  },
  {
    "compound": "COc1ccc(C2(c3ccc(OC)cc3)NC(=N)N(C3CCN(C(=O)c4ccccc4)CC3)C2=O)cc1 [Example 311]",
    "recorded_result": 8.70
  }
]

Required: pIC50, one value per compound below.
1. N=C1NC(c2ccccc2)(c2ccccc2)C(=O)N1C1CCOCC1 [Example 198]
2. COc1ccc(C2(c3ccc(OC)cc3)NC(=N)N(Cc3ncccc3C)C2=O)cc1 [Example 302]

[A]
1: 6.93; 2: 7.31
